target: UniProtKB P20309
assayMetric: Ki

Q: For UniProtKB P20309, provide Ki of CNCCCCCCCCN1CC[C@@H](C(C(N)=O)(c2ccccc2)c2ccccc2)C1 please.
A: ~0.96 nM

---

biological target: hM3 receptor (Homo sapiens); assay: Blockade of agonist-mediated calcium release via FLIPR; conditions: CHO cells stably expressing the hM3 receptor, oxotremorine EC90
Sequence (P20309 whole entry): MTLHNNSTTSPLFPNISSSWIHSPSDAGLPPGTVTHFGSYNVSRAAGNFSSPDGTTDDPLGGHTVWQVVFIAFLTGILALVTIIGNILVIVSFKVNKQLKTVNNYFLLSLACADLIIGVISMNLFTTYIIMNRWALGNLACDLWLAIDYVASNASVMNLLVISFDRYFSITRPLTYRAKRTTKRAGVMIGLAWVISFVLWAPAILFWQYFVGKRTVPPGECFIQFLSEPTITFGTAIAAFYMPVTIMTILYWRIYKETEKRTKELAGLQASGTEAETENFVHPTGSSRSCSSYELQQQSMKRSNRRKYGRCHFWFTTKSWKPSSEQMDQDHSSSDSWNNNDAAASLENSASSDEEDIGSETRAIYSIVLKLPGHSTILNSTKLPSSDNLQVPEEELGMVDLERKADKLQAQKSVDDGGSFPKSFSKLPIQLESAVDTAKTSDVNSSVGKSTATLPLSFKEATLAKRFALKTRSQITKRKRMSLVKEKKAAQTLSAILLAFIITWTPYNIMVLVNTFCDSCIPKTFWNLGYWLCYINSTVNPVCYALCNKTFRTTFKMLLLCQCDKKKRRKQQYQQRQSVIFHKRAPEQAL
pKi: −log10 of the molar value.
assayMetric: pKi

Q: // lookup pKi | system=hM3 receptor (Homo sapiens) | key= CNCCCCCCCCN1CC[C@@H](C(C(N)=O)(c2ccccc2)c2ccccc2)C1
A: > 8.30
